assay: Acute toxicity in rabbits; conditions: rabbit, in vivo, oral
MEASURED ATTRIBUTE: LD50

STRUCTURE NOTATION | MEASURED ATTRIBUTE | MEASUREMENT
S=c1[nH]c2cc(Cl)c(Oc3ccc(Cl)cc3Cl)cc2[nH]1 | LD50 | > 6000 mg/kg
